Source listed as patent US20260125375A1.

# log10(Ki) annotations
Target of assay: C-CBL (residues 46-435) (Homo sapiens)
Construct: Purified CBL-B (residues 36-427) and C-CBL (residues 46-435) proteins from baculovirus-infected insect cells; made in house; host or cells: baculovirus-infected insect cells
Assay protocol: Ligand Displacement Assay (LDA), HTRF competitive binding against BODIPY-labeled fluorescent tracer, C-CBL
Conditions: geometric mean of the number of tests, read-out: C-CBL Ki (nM) GMean
Reported property: log10(Ki) (log10 of the value in nM)

| Compound | log10(Ki) |
| --- | --- |
| CC(C)NC(C)c1nc(C(F)(F)F)cc2c(-c3cccc([C@H](c4nncn4C)C4CCC4)c3)n[nH]c12 (single isomer, unassigned) [Example C35] | 1.46 |
| C[C@H](c1nc(C(F)(F)F)cc2c(-c3cccc(C4(Cc5nncn5C)COC4)c3)n[nH]c12)N1CCCC1 (single isomer, unassigned) | 1.65 |
| CC(N[C@H](C)[C@H](C)O)c1nc(C(F)(F)F)cc2c(-c3cccc([C@H](c4nncn4C)C4CCC4)c3)n[nH]c12 (single isomer, unassigned) [Example C48] | 1.52 |
| C[C@H](N[C@@H]1CC[C@H](O)C1)c1nc(C(F)(F)F)cc2c(-c3cccc([C@H](c4nncn4C)C4CCC4)c3)n[nH]c12 | 1.32 |
| CNCc1nc(C(F)(F)F)cc2c(-c3cccc([C@H](c4nncn4C)C4CCC4)c3)n[nH]c12 | 2.59 |
| CC(NC1CC2(COC2)C1)c1nc(C(F)(F)F)cc2c(-c3cccc([C@H](c4nncn4C)C4CCC4)c3)n[nH]c12 (single isomer, unassigned) [Example C98] | 2.04 |
| Cn1cnnc1[C@@H](c1cccc(-c2n[nH]c3c(CN[C@@H]4CCC[C@H]4O)nc(C(F)(F)F)cc23)c1)C1CCC1 | 2.05 |
| Cn1cnnc1[C@@H](c1cccc(-c2n[nH]c3c(CNC4CCCC4)nc(C(F)(F)F)cc23)c1)C1CCC1 | 1.74 |
| C[C@H](NC1CCC1)c1nc(C(F)(F)F)cc2c(-c3cccc([C@H](c4nncn4C)C4COC4)c3)n[nH]c12 (single isomer, unassigned) | 2.28 |
| CC(NCCO)c1nc(C(F)(F)F)cc2c(-c3cccc([C@H](c4nncn4C)C4CCCCC4)c3)n[nH]c12 (single isomer, unassigned) [Example C40] | 1.98 |
| Cn1cnnc1[C@@H](c1cccc(-c2n[nH]c3c(CN4CC[C@@H](F)C4)nc(C(F)(F)F)cc23)c1)C1CCC1 | 2.65 |
| C[C@@H](N[C@@H]1COC[C@H]1O)c1nc(C(F)(F)F)cc2c(-c3cccc([C@H](c4nncn4C)C4CCC4)c3)n[nH]c12 (single isomer, unassigned) | 1.92 |
| Cn1cnnc1CC1(c2cccc(-c3n[nH]c4c(CN5CCCCC5)nc(C(F)(F)F)cc34)c2)COC1 | 2.05 |
| C[C@@H](c1nc(C(F)(F)F)cc2c(-c3cccc(C4(Cc5nncn5C)COC4)c3)n[nH]c12)N1CCC(F)(F)C1 (single isomer, unassigned) | 2.17 |
| CCNCc1nc(C(F)(F)F)cc2c(-c3cccc([C@H](c4nncn4C)C4CCC4)c3)n[nH]c12 | 2.28 |
| C[C@@H](N[C@H]1CCC(F)(F)C1)c1nc(C(F)(F)F)cc2c(-c3cccc([C@H](c4nncn4C)C4CCC4)c3)n[nH]c12 | 1.93 |
| C[C@H](N[C@@H]1COC[C@@H]1O)c1nc(C(F)(F)F)cc2c(-c3cccc([C@H](c4nncn4C)C4CCC4)c3)n[nH]c12 (single isomer, unassigned) | 0.36 |
| Cn1cnnc1CC1(c2cccc(-c3n[nH]c4c(CN5CC(F)C5)nc(C(F)(F)F)cc34)c2)COC1 | 2.10 |
| C[C@@H](N[C@H]1C[C@H](O)C1)c1nc(C(F)(F)F)cc2c(-c3cccc([C@H](c4nncn4C)C4CCC4)c3)n[nH]c12 (single isomer, unassigned) | 1.70 |
| C[C@@H]1CN(Cc2nc(C(F)(F)F)cc3c(-c4cccc([C@H](c5nncn5C)C5CCC5)c4)n[nH]c23)CCO1 | 2.37 |
| CC[C@@H](c1cccc(-c2n[nH]c3c([C@H](C)NC[C@H](C)O)nc(C(F)(F)F)cc23)c1)c1nncn1C (single isomer, unassigned) | 2.43 |
| Cn1cnnc1CC1(c2cccc(-c3n[nH]c4cnc(C(F)(F)F)cc34)c2)COC1 | 2.45 |
| CC(NC1CC(F)(F)C1)c1nc(C(F)(F)F)cc2c(-c3cccc(C4(Cc5nncn5C)COC4)c3)n[nH]c12 (single isomer, unassigned) [Example C93] | 1.20 |
| C[C@@H](c1nc(C(F)(F)F)cc2c(-c3cccc(C4(Cc5nncn5C)COC4)c3)n[nH]c12)N1CCC1 (single isomer, unassigned) | 1.82 |
